Each recorded value in this set is attributed to PubChem BioAssay (Tox21).

Experiment: Human pregnane X receptor (PXR) small molecule agonists, qHTS cell viability counter screen (AID 1346977); note: nearly all actives have a fitted effect of over 50% in size
Conditions: PXR-Luc HepG2 viability, CellTiter-Fluor, 24 h; series mostly up to 92.4 µM
Inconclusive results are not listed. Calls of active or inactive are those of the source. Calls come from the whole dose curve; as a rule, active = well fitted cell-killing curve with a large enough effect in the repeat runs; inconclusive = weak or mixed curves, or effect the other way; inactive = flat fitted curve, though single readings scatter.
Classes to choose from: active, inactive

Which outcome was assigned to COc1cccc2c1C(=O)c1c(O)c3c(c(O)c1C2=O)C[C@@](O)(C(=O)CO)CC3OC1CC(N2CCOC(OC)C2)C(O)C(C)O1 (stereo partly drawn) in this test?
active

Record lookup: outcome of this test for CCC(C)c1cc([N+](=O)[O-])cc([N+](=O)[O-])c1OC(=O)C=C(C)C (stereo not drawn) ?
active

Outcome logged for [Cl][Sb]([Cl])[Cl] in this assay:
inactive

Status in this test for N#C/C=C/C#N ?
inactive

# fetch the recorded call for N#Cc1ccccc1N here
inactive

Hello, I am checking results. What call was entered for COc1cccc(C(=O)CCN[C@@H](C)[C@H](O)c2ccccc2)c1 ?
active

What outcome does the record of this test show for C[C@@H](Oc1ccc(Cl)cc1Cl)C(=O)O ?
inactive

Hey, what did the test say about CCN ?
inactive

How was CSCCCN=C=S classified in this test?
inactive

Short answer needed: outcome of this test for CCCCCCCCCCCCCCCC[n+]1ccccc1 ?
active

Tell me the recorded outcome of this test for N#Cc1ccccc1Cl .
inactive

Please state the recorded outcome for this molecule: CC(=O)O[C@H]1CC[C@@]2(C)C(=CC[C@@H]3[C@@H]2CC[C@]2(C)C(=O)CC[C@@H]32)C1
inactive

Assay result, entry CCOP(=S)(OCC)SCS(=O)(=O)C(C)(C)C — outcome?
inactive

###

Experiment: qHTS assay to identify small molecule antagonists of the estrogen related receptor signaling pathway with the pleiotropic PPARgamma coactivator (PGC) from Tox21 10K library - cell viability counter screen (AID 1224840); note: nearly all actives have a fitted effect of over 40% in size
Settings: PGC/ERR reporter cells viability, CellTiter-Fluor, 17.5 h; series mostly up to 92.4 µM
Records with an inconclusive call do not appear. Calls of active or inactive are those of the source. The call rests on the fitted dose curve; in most records, active means well fitted cell-killing curve with a large enough effect in the repeat runs (not every such curve was filed as active); inconclusive means weak or mixed curves, or effect the other way; inactive means no such curve, though single readings can be large or run the other way.
Output constraint: value belongs to active, inactive

Answer briefly: the call reported for CC(=O)[O-].CC(=O)[O-].[Hg+2] in this assay.
active

Which outcome was entered for the compound CC(C)CBr in this test?
inactive

Give the logged outcome of this assay for the following compound: Nc1ccccc1C(=O)OC/C=C/c1ccccc1
inactive

Test call, this compound: Oc1ccc(I)cc1
inactive

Call for entry O=C1C=CC(=O)c2ccccc21 :
active

GET /call?item= O=S(=O)(c1ccc(Cl)cc1)c1ccc(Cl)cc1 returns the recorded outcome of this test.
inactive

Recorded test call requested for c1ccc(Nc2ccc3ccccc3c2)cc1
inactive

Assay outcome for C=CC(=O)OCC(COC(=O)C=C)(COC(=O)C=C)COC(=O)C=C : what was it?
active

So what was the verdict on CC(O)C#N (centres undefined) in this test?
inactive

Which outcome was assigned to CN(C)C(=S)[S-].CN(C)C(=S)[S-].[Cu+2] in this test?
active

Per the records of this test, what outcome belongs to NC(=O)CCl ?
inactive

Status in this test for CCC(C)(C)C(=O)OC1=C(c2ccc(Cl)cc2Cl)C(=O)OC12CCCCC2 ?
inactive

What did the test return for O=[N+]([O-])c1c2ccccc2cc2ccccc12 ?
inactive

Given CCCCCCCCCCCCCN1CC(C)OC(C)C1 (centres undefined) , state the outcome it received in this test.
inactive

###

Molecular target: Thyrotropin-releasing hormone receptor (Homo sapiens) (UniProt P34981)
Sequence (P34981 whole entry, looked up): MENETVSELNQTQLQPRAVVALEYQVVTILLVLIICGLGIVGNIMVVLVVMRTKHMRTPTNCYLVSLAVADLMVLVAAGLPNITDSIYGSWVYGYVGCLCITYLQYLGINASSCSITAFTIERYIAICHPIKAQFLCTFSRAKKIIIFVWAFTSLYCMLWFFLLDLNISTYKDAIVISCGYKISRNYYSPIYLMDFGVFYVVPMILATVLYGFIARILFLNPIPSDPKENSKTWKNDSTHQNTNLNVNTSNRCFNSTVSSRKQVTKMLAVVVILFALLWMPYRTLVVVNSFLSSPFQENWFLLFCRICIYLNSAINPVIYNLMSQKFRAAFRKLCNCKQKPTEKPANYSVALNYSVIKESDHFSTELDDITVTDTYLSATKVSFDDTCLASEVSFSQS
Experiment: qHTS assay to identify small molecule agonists of the thyrotropin-releasing hormone receptor (TRHR) signaling pathway (AID 1346891);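 note: HEK293 cells expressing TRHR with calcium dye readout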
Conditions: TRHR-HEK293 calcium fluorescence, agonist mode; series mostly up to 57.6 µM
Description: National Center for Advancing Translational Sciences [NCATS] NIH Chemical Genomics Center [NCGC] U.S. Environmental Protection Agency [EPA] National Institutes of Environmental Health Sciences [NIEHS] National Toxicology Program [NTP] […] A compound/drug can either activate (agonist) or suppress (antagonist) GPCRs that can be monitored by levels of intracellular calcium. […]
Activity calls are given as the source filed them. Calls come from the whole dose curve.
outcomeMeasure: outcome

molecule	measurementTarget	endpointResult
CCOP(=O)(NC(C)C)Oc1ccc(SC)c(C)c1 (stereo not drawn)	Thyrotropin-releasing hormone receptor (Homo sapiens) (UniProt P34981)	inactive
c1ccc(Nc2ccc3ccccc3c2)cc1	Thyrotropin-releasing hormone receptor (Homo sapiens) (UniProt P34981)	inactive
N#CCCSCCC#N	Thyrotropin-releasing hormone receptor (Homo sapiens) (UniProt P34981)	inactive
O=[N+]([O-])c1c2ccccc2cc2ccccc12	Thyrotropin-releasing hormone receptor (Homo sapiens) (UniProt P34981)	inactive
Clc1ccc(-c2ccccc2)cc1	Thyrotropin-releasing hormone receptor (Homo sapiens) (UniProt P34981)	inactive
ClC(Cl)=C(Cl)Cl	Thyrotropin-releasing hormone receptor (Homo sapiens) (UniProt P34981)	inactive

Endpoint output: outcome of COc1ccc(/C(=C/C(=O)N2CCOCC2)c2ccc(Cl)cc2)cc1OC . Value?
inactive

Report outcome for BrC(Br)C(Br)(Br)Br please.
inactive

###

Target: Estrogen receptor (Homo sapiens)
Experiment: qHTS assay to identify small molecule antagonists of the estrogen receptor alpha (ER-alpha) signaling pathway (AID 743069)
Details: HEK293 ER-alpha-UAS-bla, beta-lactamase ratio, antagonist mode; series mostly up to 69.4 µM
Activity calls are given as the source filed them. Calls follow the shape of the dose curve; as a rule, active = well fitted curve in the direction sought with a large enough effect in the signal ratio in the repeat runs (not every such curve was filed as active); inconclusive = weak or mixed curves, or effect the other way; inactive = no such curve, though single readings can be large or run the other way; the % refers to the signal ratio.
The reply should be one of these categories: active, inactive

Dear all, I need the recorded test outcome for CC(C)OC(=S)S , thank you.
inactive

I'd appreciate the recorded outcome for Nc1ccc(Sc2ccc(N)cc2)cc1 from this test.
inactive

What call does the record list for CC(C)(C)C(O)/C(=C\c1ccc(Cl)cc1Cl)n1cncn1 (stereo not drawn) ?
active

Called result for CC(C)Oc1cccc(NC(=O)c2ccccc2C(F)(F)F)c1
inactive

Hi, sorry to bother you, what did the test record for N#C/C=C/C#N ?
inactive

Short answer needed: outcome of this test for CC1(C)CN=C(NN=C(/C=C/c2ccc(C(F)(F)F)cc2)/C=C/c2ccc(C(F)(F)F)cc2)NC1 ?
active

Recorded test call requested for CC(=O)C(Cl)(Cl)Cl
active

Recorded call for O=C(NC(=O)c1c(F)cccc1F)Nc1cc(Cl)c(OC(F)(F)C(F)F)c(Cl)c1 ?
inactive

###

Biological target: Cytochrome P450 2C9 (Homo sapiens)
Assay: Cytochrome P450 Family 2 Subfamily C Member 9 (CYP2C9) small molecule antagonists: luciferase reporter qHTS assay (AID 1671198); note: nearly all actives have a fitted effect of over 50% in size
Conditions: P450-Glo CYP2C9 enzyme assay, luciferin luminescence; series mostly up to 115 µM
Inconclusive results are not listed. Active and inactive are the calls of the source. The call rests on the fitted dose curve; in most records, active means well fitted inhibition curve with a large enough effect in the repeat runs; inconclusive means weak or mixed curves; inactive means no such curve, though single readings can be large or run the other way.
Return exactly one item of t = active, f = inactive

Which outcome was assigned to CC(C)C(=O)Cl in this test?
f

What call does the record list for N#C/C=C/c1ccccc1 ?
f

Field: outcome | Entry: Clc1ccc(-c2ccc(Cl)c(Cl)c2Cl)c(Cl)c1Cl
t

Test call, this molecule: CC1CCC(C(C)C)C(OC(=O)c2ccccc2N)C1 (configuration not stated)
t

In this assay, the call recorded for COP(=O)(CCC(=O)NCO)OC was what?
f

Hello, I am checking results. What call was entered for C[C@@H](Oc1ccc(Cl)cc1Cl)C(=O)O ?
f

Would you mind telling me which call this test gave CCS(=O)(=O)c1cccnc1S(=O)(=O)NC(=O)Nc1nc(OC)cc(OC)n1 ?
t

###

Assay: qHTS assay to identify small molecule agonists of the AP-1 signaling pathway - cell viability counter screen (AID 1159525); note: nearly all actives have a fitted effect of over 55% in size
Details: ME-180 (cervical carcinoma) AP-1-bla cells viability, ATP luminescence, 5 h; series mostly up to 76.8 µM
Results filed as inconclusive are left out. Active and inactive are the calls of the source. Calls follow the shape of the full dose curve.
Outcomes you can answer with include only these: active, inactive

Hi, do you know how O=[N+]([O-])c1cc(Cl)ccc1Cl came out in this test?
inactive

Recorded call for O=S(=O)(c1ccc(Cl)cc1)c1ccc(Cl)cc1 ?
inactive

What was the test verdict on O=C(Nc1ccc2[nH]ccc2c1)c1cc2cc(F)ccc2n1Cc1cccc(F)c1 ?
active

Each compound tested received a call. Report the one for ClCc1ccccc1CCl .
inactive

Outcome? OC(c1ccc(Cl)cc1)(c1ccc(Cl)cc1)C(Cl)(Cl)Cl
inactive

Would you mind telling me which call this test gave Oc1ccc(I)cc1 ?
inactive

State the result this test recorded for Cc1c(Cl)c(=O)oc2cc(OP(=O)(OCCCl)OCCCl)ccc12 .
inactive

Test call, this compound: COCC(=O)N(c1c(C)cccc1C)[C@H](C)C(=O)OC
inactive

Hello, I am checking results. What call was entered for CCOC(=O)c1ccccc1S(=O)(=O)NC(=O)Nc1nc(Cl)cc(OC)n1 ?
inactive

Would you mind telling me which call this test gave Oc1ccc(C(=C(Cl)Cl)c2ccc(O)cc2)cc1 ?
inactive

// outcome(item) with item = O=C(Cl)c1ccc(Cl)cc1
inactive

# fetch the recorded call for CC(C)CC(C)(c1ccc(O)cc1)c1ccc(O)cc1 here
active

Recorded test call requested for [Cd+2].[Cl-].[Cl-]
inactive
